# Test system: PPARg:RXRa 90nM:30nM, anti-RXR (NR concentration 90 nM, RXRa partner concentration 30 nM)
# PROTOCOL DETAILS: PBM binding z-score (relative to random genomic background probes); higher = stronger binding; sequences stand for … in GC…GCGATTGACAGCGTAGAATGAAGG
# label = true (1) if PBM binding z-score >= 5 else false (0)

Could you please find out whether "ACTAGCAGGCCAAAGGTCACTCAAGATTAGTCCG" has PBM binding z-score that meets 5 or exceeds it? true (1)

Check "ACTAGTTGGTCAGCTGAGGTCACACACAATTCGG" too. false (0)

Check "CTAACTAGGTCAAAGGACAGTGAAAGGCGACGTA" too. true (1)

Check "CCTACTGGGTCATTCAGAGGTCATTGATCATATG" too. true (1)

Check "CGAACTAAGTCAAAGGACAGTGAAAGGCGACGTA" too. false (0)

Check "CGTCAAAGTTCAAGTTAACGTAACAGAAAGCAGC" too. false (0)

Check "ATCGAAAGGTCGAGGAGGTGAGTATACACCGTTT" too. false (0)

Check "TAGCCTAGGTCATTCAGGGGCTAGTATAGAAAGC" too. false (0)

Check "CAGACTAGGTCAAAGGTCAAAGTCGAGCCAACCA" too. true (1)

Check "TCCAGTAGGTTACGGGGGCATTCAGGGATGAAGA" too. true (1)

Check "CGTCTAAGTTCAAGGTAACGTAACAGAAAGCAGC" too. false (0)

Check "CCTTACAGGTCAAGGTTATAGCACGGGTGGTACG" too. false (0)

Check "AGTCAAAGTTCACGAGGTAACGTAAGATTCAGCT" too. true (1)

Check "CCTTACGGGTCAAGGTTGTAGCACGGGTGGTACG" too. false (0)

Check "AATACAGGGTCACTAGGCCAGAGTGGGTACGAAT" too. true (1)

Check "CGAACTAGGTCACCAGGACGGTGAAGAGGTTGGA" too. true (1)

Check "CCGAGTAGGTTACGAGCGGGCATTCAGTGCGAAT" too. false (0)

Check "CCTTCTGGGCCATTCAGAGGTCATTGATCATATG" too. false (0)

Check "CATACAGGGTCCGCTAGGCCAGAGTAGGGACGGC" too. false (0)

Check "AGTCCAAGTTCACTAGGTAACGTAAGATTCAGCT" too. false (0)

Check "CGTCCAAGGTCAATGTTAGGTCAGTGAAAGCATT" too. false (0)

Check "TCGAGTAGGTTGCGGGGGCATTCAGGGATGAAGA" too. false (0)

Check "ACTAGTTGGTCAGCTGAGGTCACACTCAATTCGG" too. false (0)

Check "CTCCAAAGGTCGGTTGAGGTGAGTATACGGATAA" too. false (0)

Check "CCTACAGGGCCAAAGGTCATTGATTCCAATGCTC" too. true (1)

Check "TCTGCTTGGTCAACGATGGTCAGCTAATCTGCTA" too. false (0)

* * *

# Tested on: LXRb:RXRa (NR concentration 270 nM, RXRa partner concentration 90 nM)
# PROTOCOL DETAILS: PBM binding z-score (relative to random genomic background probes); higher = stronger binding; sequences stand for … in GC…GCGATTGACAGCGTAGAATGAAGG
ENDPOINT NAME: PBM binding z-score
Lab note: record the figure alone, no unit after it.

PBM binding z-score lookup needed for "TAGCCTAGGTCATGCGGGCCAGCATAGTGTCGGC" , thanks. 1.37

Check "TCATATAGGTCAAAGGTGAAAGTCGGTGTGGTAA" too. 5.58

Check "CCTTGCGGGTCACTGACAGGTTATAGCATTTGGA" too. 2.95

Check "ATATGTAGGTTAGGGTCATTCGGAAAGTAGGGAA" too. 4.4

Check "CGAACTAGGTCAAAGGAAAGTGAAAGGCGACGTA" too. 1.2

Check "GCTTACGGGTGAAAGGTTATAGCATGAATAGAAT" too. 3

Check "AGTGAAAGTTCAGGACGAGGTAACGTAAAGCACG" too. 1.94

Check "CGAACTAGGTCAAAGGACAATGAAAGGCGACGTA" too. 1.92

Check "GCTCGGAGGACAAGGTCACAGCTTTGTCCGTAGA" too. 3.17

Check "TCTTGTAGATCAAAGGTTAAGACAGCCGAAGCCT" too. 2.31

Check "CCGAGTAGGTTACAAGGGGGCATTCAGTGCGAAT" too. 6.52

Check "TCTCGGAGGTCACGAAGGTCAGAGCTTTCCAGAG" too. 5.6

Check "CTAACTAGGTCACCAGGACAGTGAAGAGGTTGGA" too. 1.74

Check "CCTACTGGGGCACGAAAGGTCATTGATTCAGTGA" too. 4.57

Check "ACTCGGAGGGCAAAGGTCAGAGCTACGCCAGTGA" too. 4.14

Check "CAGCCTAGGTGAGGGCCAGTATAGGAGGAACGTT" too. -0.617

Check "CTCTGTAGGTTAAGGGGGTCATTCAGTTTGAAAG" too. 6.33

Check "CGTCCAAGGTCATACGAGGTCAGTGAAGACAGAT" too. 6.63

Check "CCTTACCGGTCAAGGTTATAGCACGGGTGGTACG" too. 1.05

Check "TCGAGTGGGTTACGGGGGCATTCAGGGATGAAGA" too. 5.08

Check "CTATGTAGGTTAAGGTGGTCATTCAGTTTGAAAG" too. 1.09

Check "CTATGCAGGTTAAGGGGGTCATTCAGTTTGAAAG" too. 6.31

Check "CCGAGTAGGTTACGAGGGGGCAATCAGTGCGAAT" too. 6.01

Check "CCTGCTCGGTCAATGGTCAGCTAAAGCAGCTCGC" too. -0.541

Check "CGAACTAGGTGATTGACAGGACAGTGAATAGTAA" too. -0.196

Check "TCGAGTAGGTTAAGGGGGCATTCAGGGATGAAGA" too. 4.58
